Answer each item with its documented TGI.
Test system: NCI-H23 lung
Measurement Protocol: NCI tumour cell line growth inhibition, 48 h

Fill in: TGI on NCI-H23 lung, entry `CNC(=S)NC(=O)c1c(Cl)n(C(=O)OC(C)(C)C)c2ccccc12`
> 100 µM

Fill in: TGI on NCI-H23 lung, entry `CCCC[C@H]1[C@@H](OCOc2ccccc2)COC(=O)N1[C@H](C)c1ccccc1`
> 58.2 µM

Fill in: TGI on NCI-H23 lung, entry `CC(=O)[C@@H]1C/C(=C\OCc2ccccc2)O[C@H]1C`
> 100 µM

Fill in: TGI on NCI-H23 lung, entry `COc1ccc(-c2cc(=O)c3ccccc3o2)cc1N`
> 100 µM

Fill in: TGI on NCI-H23 lung, entry `O=C(c1ccccc1)c1c(-c2ccccc2)sc2nc3ccccc3nc12`
> 100 µM

Fill in: TGI on NCI-H23 lung, entry `c1cc(N2CCCN(c3ccc(C4=NCCCN4)cc3)CC2)ccc1C1=NCCCN1`
> 100 µM

Fill in: TGI on NCI-H23 lung, entry `O=C1O/C(=C\c2ccccc2)N(c2ccccc2)C1=O`
> 100 µM

Fill in: TGI on NCI-H23 lung, entry `CC1=C(C(=O)Nc2cc(=O)n(C)c(=O)n2C)C(c2cccc([N+](=O)[O-])c2)C(C(=O)Nc2cc(=O)n(C)c(=O)n2C)=C(C)N1`
> 100 µM

Fill in: TGI on NCI-H23 lung, entry `COc1ccc(NC([Se])=NC23CC4CC(CC(C4)C2)C3)cc1`
3 µM

Fill in: TGI on NCI-H23 lung, entry `Nc1c2c(c(O)c3c1=C(CO)C=N3)=NCCS2`
0.352 µM

Fill in: TGI on NCI-H23 lung, entry `COc1ccc(/C(COc2ccc3c(=O)c(-c4ccccc4)coc3c2)=N\O)cc1`
62.8 µM

Fill in: TGI on NCI-H23 lung, entry `CCN(CC)CCC(=O)c1ccc(C)cc1`
48.1 µM

Fill in: TGI on NCI-H23 lung, entry `Cc1n[nH]c(=O)n1/N=C/c1ccc(F)cc1`
> 100 µM

Fill in: TGI on NCI-H23 lung, entry `C1CCCCC2(CCCCCCCCC3(CCC1)OCCO3)OCCO2`
> 100 µM

Fill in: TGI on NCI-H23 lung, entry C=C1C(=O)OC2C1CCC(C)C1C=CC(=O)C12C (stereo not given)
10.2 µM

Fill in: TGI on NCI-H23 lung, entry `O=C1/C(=C/c2ccc(OC(=O)c3ccccc3)cc2)CCC/C1=C\c1ccc(OC(=O)c2ccccc2)cc1`
> 100 µM

Fill in: TGI on NCI-H23 lung, entry COc1ccccc1C(O)(c1ccccc1)C(O)(c1ccccc1)c1ccccc1OC (stereo not given)
> 100 µM

Fill in: TGI on NCI-H23 lung, entry `C=C1C(=O)O[C@H]2[C@H]1CC/C(COC(=O)C(=O)c1cn(C)c3ccc(Cl)cc13)=C\CC[C@@]1(C)O[C@@H]21`
3.05 µM

Fill in: TGI on NCI-H23 lung, entry `CC(C)(C)[Si](C)(C)Oc1cc(CO)cc2c1cc(=N)o[n+]2[O-]`
> 10 µM

Fill in: TGI on NCI-H23 lung, entry `Cc1cccc(C)c1CO`
> 100 µM

Fill in: TGI on NCI-H23 lung, entry `COc1cccc(/C=C2\CCCc3ccccc3C2=O)c1`
32.6 µM

Fill in: TGI on NCI-H23 lung, entry C[C@]12CCC(=O)C(O)=C1CC[C@@H]1C2CC[C@]2(C)NC(=O)CCC12 (stereo not given in full)
> 100 µM

Fill in: TGI on NCI-H23 lung, entry `CCO/C=N\c1c(C#N)c(-c2ccc(Cl)cc2)cn1-c1ccc(C)cc1`
> 100 µM

Fill in: TGI on NCI-H23 lung, entry C=C(C#N)C1OCC2OC(C)(C)OC21 (stereo not given)
34.8 µM

Fill in: TGI on NCI-H23 lung, entry CC1=NN(c2cccc(Cl)c2)C2(SCC(=O)N2c2nc3ccccc3s2)/C1=C\c1ccc(N(C)C)cc1 (stereo not given)
> 100 µM

Fill in: TGI on NCI-H23 lung, entry `COc1cccc2c1CCc1c(-c3ccc(F)cc3)cc(-c3ccc4ccccc4n3)nc1-2`
> 100 µM

Fill in: TGI on NCI-H23 lung, entry CN(C)CC1CN=C(N)O1 (stereo not given)
> 100 µM

Fill in: TGI on NCI-H23 lung, entry COC(=O)c1ccccc1C1CN=NC12Cc1ccccc1C2=O (stereo not given)
> 100 µM

Fill in: TGI on NCI-H23 lung, entry `CCN(Cc1ccccc1)c1ccc(CO)c(Cl)c1`
> 86 µM

Fill in: TGI on NCI-H23 lung, entry `COc1ccc(-c2cc(-c3cccn3C)c(C#N)c(=O)[nH]2)cc1OC`
> 100 µM

Fill in: TGI on NCI-H23 lung, entry `C[C@@H](O)[C@H](NC(=O)N[C@@H](CC(N)=O)c1nc([C@@H](N)CO)no1)C(=O)O`
> 100 µM

Fill in: TGI on NCI-H23 lung, entry CC1C/C(=C\c2ccc(OC(=O)C(C)(C)C)cc2)C(=O)/C(=C/c2ccc(OC(=O)C(C)(C)C)cc2)C1 (stereo not given)
> 100 µM

Fill in: TGI on NCI-H23 lung, entry CC12CCC(C(Nc3cc(C(F)(F)F)cc(C(F)(F)F)c3)C1=O)C2(C)C (stereo not given)
> 100 µM

Fill in: TGI on NCI-H23 lung, entry COc1c(OC(C)C)c(OC(C)C)c2oc(=O)n3c2c1C(c1ccccc1-n1c(C)ccc1C)C=C3 (stereo not given)
> 100 µM

Fill in: TGI on NCI-H23 lung, entry `C=CCN1C(=O)/C(=C\c2cc(C(C)(C)C)c(O)c(C(C)(C)C)c2)NC1=S`
94 µM

// provenance: PubChem BioAssay (NCI)
